System: U2OS
procedure.summary: maximum observed lethal fraction; higher = more cell death
experimental.conditions: 0.1 µM
Criterion: maximum observed lethal fraction meeting or surpassing 0.3. Met: 1. Not met: -1.

Confirm if maximum observed lethal fraction reported for the compound `Nc1cc(C(F)(F)F)c(-c2cc(N3CCOCC3)nc(N3CCOCC3)n2)cn1` is 0.3 or above.
-1

Confirm if maximum observed lethal fraction reported for the compound `CC(=O)c1c(C)c2cnc(Nc3ccc(N4CCNCC4)cn3)nc2n(C2CCCC2)c1=O` is 0.3 or above.
-1

Confirm if maximum observed lethal fraction reported for the compound `C[C@H]1CCC/C=C/[C@@H]2C[C@H](O)C[C@H]2[C@H](O)/C=C/C(=O)O1` is 0.3 or above.
1

Confirm if maximum observed lethal fraction reported for the compound `CC(C)C[C@H](NC(=O)[C@H](Cc1ccccc1)NC(=O)c1cnccn1)B(O)O` is 0.3 or above.
1

Confirm if maximum observed lethal fraction reported for the compound `CN1CC[C@H](c2c(O)cc(O)c3c(=O)cc(-c4ccccc4Cl)oc23)[C@H](O)C1` is 0.3 or above.
1

Confirm if maximum observed lethal fraction reported for the compound `CNCc1ccc(-c2[nH]c3cc(F)cc4c3c2CCNC4=O)cc1` is 0.3 or above.
-1

Confirm if maximum observed lethal fraction reported for the compound `Cc1c2oc3c(C)ccc(C(=O)N[C@@H]4C(=O)N[C@H](C(C)C)C(=O)N5CCC[C@H]5C(=O)N(C)CC(=O)N(C)[C@@H](C(C)C)C(=O)O[C@@H]4C)c3nc-2c(C(=O)N[C@@H]2C(=O)N[C@H](C(C)C)C(=O)N3CCC[C@H]3C(=O)N(C)CC(=O)N(C)[C@@H](C(C)C)C(=O)O[C@@H]2C)c(N)c1=O` is 0.3 or above.
1

Confirm if maximum observed lethal fraction reported for the compound `Cc1cc(Nc2ccc(NC(=O)c3ccc(Nc4ccnc5ccccc45)cc3)cc2)nc(N)n1` is 0.3 or above.
-1

Confirm if maximum observed lethal fraction reported for the compound CC(=O)N[C@H]1[C@@H](O[C@@H]2O[C@H](CC(O)[C@H]3O[C@@H](n4ccc(=O)[nH]c4=O)[C@H](O)[C@@H]3O)[C@H](O)[C@H](O)[C@H]2NC(=O)/C=C/CC(C)C)O[C@H](CO)[C@@H](N)[C@@H]1O (stereo partly drawn) is 0.3 or above.
-1

Confirm if maximum observed lethal fraction reported for the compound `CC(C)C[C@@H](C=O)NC(=O)[C@H](CC(C)C)NC(=O)[C@H](CC(C)C)NC(=O)OCc1ccccc1` is 0.3 or above.
-1

Confirm if maximum observed lethal fraction reported for the compound `CC[C@@]1(O)C(=O)OCc2c1cc1n(c2=O)Cc2cc3ccccc3nc2-1` is 0.3 or above.
-1

Confirm if maximum observed lethal fraction reported for the compound `C#C[C@@]1(O)[C@@H](CO)O[C@@H](n2ccc(N)nc2=O)[C@@H]1O` is 0.3 or above.
-1

---

Tested on: U2OS;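 note: FLICK assay: SYTOX Green fluorescence of dead cells tracked over time after drugging in 96-well plates, with total cell counts taken from Triton X-100 lysed wells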
procedure.summary: maximum observed lethal fraction; higher = more cell death
experimental.conditions: 3.16 µM
Criterion: maximum observed lethal fraction meeting or surpassing 0.3. Met: label 1. Not met: label 0.

Confirm if maximum observed lethal fraction reported for the compound Cc1cc(Nc2ccc(NC(=O)c3ccc(Nc4ccnc5ccccc45)cc3)cc2)nc(N)n1 [SGI-1027] is 0.3 or above.
label 1

Confirm if maximum observed lethal fraction reported for the compound O=C(CCCCCCC(=O)Nc1ccccc1)NO [Vorinostat] is 0.3 or above.
label 1

Confirm if maximum observed lethal fraction reported for the compound NC(=O)c1cccc2cn(-c3ccc([C@@H]4CCCNC4)cc3)nc12 [Niraparib] is 0.3 or above.
label 0

Confirm if maximum observed lethal fraction reported for the compound CC(=O)N[C@H]1[C@@H](O[C@@H]2O[C@H](CC(O)[C@H]3O[C@@H](n4ccc(=O)[nH]c4=O)[C@H](O)[C@@H]3O)[C@H](O)[C@H](O)[C@H]2NC(=O)/C=C/CC(C)C)O[C@H](CO)[C@@H](N)[C@@H]1O (stereo partly drawn) [Tunicamycin] is 0.3 or above.
label 1

Confirm if maximum observed lethal fraction reported for the compound CN1CC[C@H](c2c(O)cc(O)c3c(=O)cc(-c4ccccc4Cl)oc23)[C@H](O)C1 [Flavopiridol] is 0.3 or above.
label 1

Confirm if maximum observed lethal fraction reported for the compound CN(C)C/C=C/C(=O)Nc1ccc(C(=O)N2CCC[C@@H](Nc3ncc(Cl)c(-c4c[nH]c5ccccc45)n3)C2)cc1 [THZ531] is 0.3 or above.
label 1

Confirm if maximum observed lethal fraction reported for the compound COC(=O)C[C@](O)(CCCC(C)(C)O)C(=O)O[C@@H]1C(OC)=C[C@]23CCCN2CCc2cc4c(cc2[C@H]13)OCO4 [Homoharringtonine] is 0.3 or above.
label 1

Confirm if maximum observed lethal fraction reported for the compound CN[C@@H]1C[C@H]2O[C@@](C)([C@@H]1OC)n1c3ccccc3c3c4c(c5c6ccccc6n2c5c31)C(=O)NC4 [Staurosporine] is 0.3 or above.
label 1

Confirm if maximum observed lethal fraction reported for the compound COc1ccc(C[C@H]2NC[C@H](O)[C@H]2OC(C)=O)cc1 [Anisomycin] is 0.3 or above.
label 1

Confirm if maximum observed lethal fraction reported for the compound C/C=C(/C)C(=O)O[C@H]1C(C)=C2[C@H]([C@@H]1OC(=O)CCCCCCC)[C@@](C)(OC(C)=O)C[C@H](OC(=O)CCC)[C@@]1(O)[C@H]2OC(=O)[C@@]1(C)O [Thapsigargin] is 0.3 or above.
label 1

Confirm if maximum observed lethal fraction reported for the compound Nc1cc(C(F)(F)F)c(-c2cc(N3CCOCC3)nc(N3CCOCC3)n2)cn1 [Buparlisib] is 0.3 or above.
label 0

Confirm if maximum observed lethal fraction reported for the compound CO[C@H]1C[C@@H]2CC[C@@H](C)[C@@](O)(O2)C(=O)C(=O)N2CCCC[C@H]2C(=O)O[C@H]([C@H](C)C[C@@H]2CC[C@@H](O)[C@H](OC)C2)CC(=O)[C@H](C)/C=C(\C)[C@@H](O)[C@@H](OC)C(=O)[C@H](C)C[C@H](C)/C=C/C=C/C=C/1C [Rapamycin] is 0.3 or above.
label 0

Confirm if maximum observed lethal fraction reported for the compound CC[C@@]1(O)C(=O)OCc2c1cc1n(c2=O)Cc2cc3c(CN(C)C)c(O)ccc3nc2-1 [Topotecan] is 0.3 or above.
label 0
